Each recorded value in this set is attributed to ChEMBL document CHEMBL1124456.

target: UniProtKB P19327; assay: In vitro ability to inhibit [3H]8-OH-DPAT binding to 5-hydroxytryptamine 1A receptor of rat hippocampus and value ranges from 6 - 13; format: tissue-based
Sequence (P19327 whole entry): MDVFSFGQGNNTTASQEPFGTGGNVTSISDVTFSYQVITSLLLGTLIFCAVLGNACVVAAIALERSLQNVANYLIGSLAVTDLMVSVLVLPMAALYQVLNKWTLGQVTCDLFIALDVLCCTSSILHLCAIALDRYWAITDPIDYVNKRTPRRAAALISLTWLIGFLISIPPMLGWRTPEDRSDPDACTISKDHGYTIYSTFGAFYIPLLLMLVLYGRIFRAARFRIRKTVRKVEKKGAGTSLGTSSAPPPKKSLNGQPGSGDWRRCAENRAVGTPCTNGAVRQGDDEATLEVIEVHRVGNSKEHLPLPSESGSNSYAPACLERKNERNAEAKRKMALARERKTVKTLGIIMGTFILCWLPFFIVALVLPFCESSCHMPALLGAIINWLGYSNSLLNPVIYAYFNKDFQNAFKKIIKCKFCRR
READOUT KIND: Ki (nM)

smiles_structure=Cl.Cl.O=C1c2ccccc2S(=O)(=O)N1CCCCN1CCN(c2cnccn2)CC1 readout_kind=Ki reported=9

----------
// values below are reported inhibition
molecular target: D(2) dopamine receptor (Rattus norvegicus); test: Inhibition of [3H]spiperone binding to Dopamine receptor D2 of rat limbic structures; type: tissue-based; design: concentration or dose not given beside the values; conditions: Limbic system, concentration not given here
READOUT KIND: inhibition (%)

compound="Cl.O=C1C2C3CCC(C4CC43)C2S(=O)(=O)N1CCCCN1CCN(c2ncccn2)CC1 (stereo not drawn)" readout_kind=inhibition unit_of_measure=% reported=70
compound="Cl.Cl.O=C1C2C3CCC(C3)C2S(=O)(=O)N1CCCCN1CCN(c2ncccn2)CC1 (stereo not drawn)" readout_kind=inhibition unit_of_measure=% reported=36
compound="Cl.Cl.O=C1C2C3CCC(O3)C2S(=O)(=O)N1CCCCN1CCN(c2cnccn2)CC1 (stereo not drawn)" readout_kind=inhibition unit_of_measure=% reported=0
compound="Cl.Cl.Cl.O=C1C2C3CCC(C3)C2S(=O)(=O)N1CCCCN1CCN(c2cccc(Cl)c2)CC1 (stereo not drawn)" readout_kind=inhibition unit_of_measure=% reported=98
compound="Cl.O=C1C2C3CCC(C3)C2S(=O)(=O)N1CCCCN1CCN(c2cncc(Cl)n2)CC1 (stereo not drawn)" readout_kind=inhibition unit_of_measure=% reported=32
compound="Cl.O=C1[C@@H]2C3CCC(O3)[C@@H]2S(=O)(=O)N1CCCCN1CCN(c2cncc(Cl)n2)CC1 (stereo partly drawn)" readout_kind=inhibition unit_of_measure=% reported=10
compound="Cl.Cl.Cl.O=C1C2C3C=CC(C3)C2S(=O)(=O)N1CCCCN1CCN(c2ccc(Cl)nn2)CC1 (stereo not drawn)" readout_kind=inhibition unit_of_measure=% reported=3
compound="Cl.O=C1C2C3C=CC(CC3)C2S(=O)(=O)N1CCCCc1ccncc1 (stereo not drawn)" readout_kind=inhibition unit_of_measure=% reported=0
compound="CC1CC(=O)N(CCCCN2CCN(c3cncc(Cl)n3)CC2)S(=O)(=O)N1.Cl.Cl.Cl (stereo not drawn)" readout_kind=inhibition unit_of_measure=% reported=4
compound="Cl.O=C1C2C3CCC(CC3)C2S(=O)(=O)N1CCCCC1CCN(c2cncc(Cl)n2)CC1 (stereo not drawn)" readout_kind=inhibition unit_of_measure=% reported=0
compound=Cl.O=C1c2ccccc2S(=O)(=O)N1CCCCN1CCN(c2cncc(Cl)n2)CC1 readout_kind=inhibition unit_of_measure=% reported=6
compound="Cl.Cl.O=C1C2C3CCC(C3)C2S(=O)(=O)N1CCCCN1CCN(c2cccc(C(F)(F)F)c2)CC1 (stereo not drawn)" readout_kind=inhibition unit_of_measure=% reported=97
compound="CC1=C(C)CC2C(C1)C(=O)N(CCCCN1CCN(c3ncccn3)CC1)S2(=O)=O.Cl.Cl (stereo not drawn)" readout_kind=inhibition unit_of_measure=% reported=21
compound=Cl.O=C1c2ccccc2S(=O)(=O)N1CCCCN1CCn2cccc2C1 readout_kind=inhibition unit_of_measure=% reported=0
compound="Cl.O=C1C2C3C=CC(C3)C2S(=O)(=O)N1CCCCc1ccncc1 (stereo not drawn)" readout_kind=inhibition unit_of_measure=% reported=1
compound="Cl.Cl.Cl.O=C1C2C3C=CC(C3)C2S(=O)(=O)N1CCCCN1CCN(c2cncc(Cl)n2)CC1 (stereo not drawn)" readout_kind=inhibition unit_of_measure=% reported=1
compound="Cl.Cl.O=C1c2ccccc2S(=O)(=O)N1CCCCN1CC2CN(Cc3ccccc3)CC2C1 (stereo not drawn)" readout_kind=inhibition unit_of_measure=% reported=8
compound="Cl.O=c1c2ccccc2[s+]([O-])n1CCCCN1CCN(c2cncc(Cl)n2)CC1 (stereo not drawn)" readout_kind=inhibition unit_of_measure=% reported=0
